Sourced from patent US20220064302A1

- Measured On: T1, human PD-1 (soluble PD-1 protein, R&D Systems) (human, UniProt Q15116 25-170, limits assumed)
- T1 construct: the kinetics paragraphs say only 'PD-1' / 'antigen'; also called hPD-1; soluble PD-1 immunogen
- Procedure Summary: BLI, mAb on AHC biosensor, PD-1 as analyte
pKd: −log10 of the molar value.
Quantity: pKd

A22 (antibody, V domains shown, Tested as full-length mAb expressed in CHO cells; also called antibody 22; L22H22) VH: QVQLVESGGGVVQPGRSLRLSCAASGFTFSNYGMHWVRQAPGKGLEWVAVIWYDGSNKYYADSVKGRFTISRDNSKNTLYLQMNSLRAEDTAVYYCARLYYYDSSGYYPDAFDIWGQGTMVTVSS VL: DIQMTQSPSSLSASVGDRVTITCRASQGIRNDLGWYQQKPGKAPKRLIYAASSLQSGVPSRFSGSGSGTEFTLTISSLQPEDFATYYCLQHNSYPFTFGPGTKVEIK = 6.39
